Source listed as BigSolDB 2.1.

condition: in toluene, 298.15 K
measured metric: solubility (mole fraction)

INPUT: # return recorded solubility (mole fraction) for input "O=C1c2ccccc2C(=O)c2c(Cl)cccc21"
OUTPUT: 0.0146

* * *

condition: in toluene, 283.15 K
measured metric: solubility (mole fraction)
Respond with the number and no other words.

INPUT: Please give the documented solubility (mole fraction) of "O=C1c2ccccc2C(=O)c2c(Cl)cccc21"
OUTPUT: 0.0112

* * *

The entries below come with measured solubility (mole fraction) values attached.
condition: in acetone, 288.15 K
// print number alone

# substance smiles, solubility (mole fraction)
rows = [
    ("O=C(O)c1cccc(Cl)c1C(=O)c1ccccc1", 0.00225),
]

--- query ---
INPUT: Determine from records and report solubility (mole fraction) for "O=C1c2ccccc2C(=O)c2c(Cl)cccc21"
OUTPUT: 0.00388

* * *

Below, each of the compounds is paired with its reported solubility (mole fraction) value.
condition: in acetone, 303.15 K
Write the value as a bare number.

# substance smiles, measured metric, observed result
data = [
    ("O=C(O)c1cccc(Cl)c1C(=O)c1ccccc1", "solubility (mole fraction)", 0.00308),
]

INPUT: State, in one line, measured solubility (mole fraction) of "O=C1c2ccccc2C(=O)c2c(Cl)cccc21"
OUTPUT: 0.00611

* * *

condition: in 1,4-dioxane, 318.15 K
measured metric: solubility (mole fraction)
Answer field: number only, no words.

INPUT: Tell me solubility (mole fraction) reported for "O=C(O)c1cccc(Cl)c1C(=O)c1ccccc1"
OUTPUT: 0.0462

* * *

Quick reference for solubility (mole fraction) among some compounds
condition: in ethyl acetate, 313.15 K
API note: the answer field is a bare number with no unit suffix.

# substance smiles, solubility (mole fraction)
records = [
    ("O=C1c2ccccc2C(=O)c2c(Cl)cccc21", 0.0106),
]

Pending compound:
INPUT: Write down solubility (mole fraction) measured for item "O=C(O)c1cccc(Cl)c1C(=O)c1ccccc1"
OUTPUT: 0.0172

* * *

condition: in 1,4-dioxane, 283.15 K
We begin with a simple list: items and their reported solubility (mole fraction).

INPUT: Could you please provide reported solubility (mole fraction) for "O=C1c2ccccc2C(=O)c2c(Cl)cccc21" ? Thanks!
OUTPUT: 0.00412

INPUT: Name the recorded solubility (mole fraction) of the compound listed here: "O=C(O)c1cccc(Cl)c1C(=O)c1ccccc1"
OUTPUT: 0.0231

* * *

condition: in 1,4-dioxane, 273.15 K
measured metric: solubility (mole fraction)
Lab note: record the figure alone, no unit after it.

# substance smiles, measured metric, observed result
measured = [
    ("O=C(O)c1cccc(Cl)c1C(=O)c1ccccc1", "solubility (mole fraction)", 0.0192),
]

INPUT: Tell me solubility (mole fraction) reported for "O=C1c2ccccc2C(=O)c2c(Cl)cccc21"
OUTPUT: 0.00323

* * *

condition: in acetone, 308.15 K
measured metric: solubility (mole fraction)
Respond using a number only.

# substance smiles, solubility (mole fraction)
measured = [
    ("O=C1c2ccccc2C(=O)c2c(Cl)cccc21", 0.00692),
]

Now, please, on to the next compound.
INPUT: Please list solubility (mole fraction) recorded for the compound "O=C(O)c1cccc(Cl)c1C(=O)c1ccccc1"
OUTPUT: 0.00349

* * *

Reported values of solubility (mole fraction) for individual entries
condition: in ethyl acetate, 293.15 K

# substance smiles, observed result
data = [
    ("O=C1c2ccccc2C(=O)c2c(Cl)cccc21", 0.00605),
]

INPUT: Assign solubility (mole fraction) to the following record: "O=C(O)c1cccc(Cl)c1C(=O)c1ccccc1"
OUTPUT: 0.00959
